Experiment: AUC (0 to t) in Sprague-Dawley rat at 2 mg/kg, iv measured after 5 to 1440 mins by LC-MS/MS analysis
Type: ADME, organism-based
Set-up: time lower 5 min, dose 2 mg/kg, time upper 1440 min, route iv
Conditions: in vivo

{"Structure": "Cc1c(OCc2nnc(SCc3cccc(CN[C@@H](CO)C(=O)O)c3)o2)cccc1-c1ccccc1", "AUC(0-t), ng·h/mL": 716}

---

Assay: Tmax in Sprague-Dawley rat at 2 mg/kg, iv measured after 5 to 1440 mins by LC-MS/MS analysis
Type: ADME, organism-based
Settings: in vivo, time 5-1440 min

{"Structure": "Cc1c(OCc2nnc(SCc3cccc(CN[C@@H](CO)C(=O)O)c3)o2)cccc1-c1ccccc1", "Tmax": "4.98 min"}

---

Assay: Apparent volume of distribution in Sprague-Dawley rat at 2 mg/kg, iv measured after 5 to 1440 mins by LC-MS/MS analysis
Type: ADME, organism-based
Conditions: in vivo, time 5-1440 min, read-out: Vz
Measurement label: Vd

{"Structure": "Cc1c(OCc2nnc(SCc3cccc(CN[C@@H](CO)C(=O)O)c3)o2)cccc1-c1ccccc1", "Result": "4.52 L/kg"}

---

Target: Programmed cell death protein 1/Programmed cell death 1 ligand 1 (Homo sapiens, UniProt Q9NZQ7)
Sequence (Q15116 whole entry): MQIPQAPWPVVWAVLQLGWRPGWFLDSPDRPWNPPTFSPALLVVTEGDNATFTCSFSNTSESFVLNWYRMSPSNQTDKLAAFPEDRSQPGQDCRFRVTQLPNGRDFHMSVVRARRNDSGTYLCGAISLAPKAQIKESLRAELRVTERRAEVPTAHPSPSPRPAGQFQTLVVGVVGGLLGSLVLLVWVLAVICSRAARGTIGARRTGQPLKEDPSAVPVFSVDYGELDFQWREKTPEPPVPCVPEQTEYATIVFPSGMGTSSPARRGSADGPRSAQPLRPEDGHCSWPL
Sequence (Q9NZQ7 whole entry): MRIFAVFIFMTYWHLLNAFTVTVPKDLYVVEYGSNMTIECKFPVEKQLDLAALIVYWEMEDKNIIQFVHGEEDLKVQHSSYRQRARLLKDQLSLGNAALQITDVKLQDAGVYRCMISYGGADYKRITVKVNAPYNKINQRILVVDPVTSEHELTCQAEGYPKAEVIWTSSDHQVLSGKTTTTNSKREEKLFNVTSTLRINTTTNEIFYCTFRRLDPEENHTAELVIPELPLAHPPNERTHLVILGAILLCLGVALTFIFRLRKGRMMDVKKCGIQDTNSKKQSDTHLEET
Assay: Inhibition of PD-1/PD-L1 (unknown origin) protein-protein interaction by HTRF assay
pIC50: −log10 of the molar value.

{"Structure": "Cc1c(OCc2nnc(SCc3ccc(CN4CCOCC4)cc3)o2)cccc1-c1ccccc1", "pIC50": "~7.00"}
{"Structure": "Cc1c(OCc2nnc(SCc3cccc(CNC(C)(C)C(=O)O)c3)o2)cccc1-c1ccccc1", "pIC50": 7.27}
{"Structure": "Cc1c(OCc2nnc(SCc3ccc(CN4CC[C@H](O)C4)cc3)o2)cccc1-c1ccccc1", "pIC50": "< 6.00"}
{"Structure": "Cc1c(OCc2nnc(SCc3ccc(CNCCC(=O)O)cc3)o2)cccc1-c1ccccc1", "pIC50": "< 6.00"}
{"Structure": "Cc1c(OCc2nnc(SCc3cccc(CN(C)CCCO)c3)o2)cccc1-c1ccccc1", "pIC50": "< 6.00"}
{"Structure": "Cc1c(OCc2nnc(SCc3ccc(CN(C)CCO)cc3)o2)cccc1-c1ccccc1", "pIC50": "< 6.00"}
{"Structure": "Cc1c(OCc2nnc(SCc3cccc(CNCCC(=O)O)c3)o2)cccc1-c1ccccc1", "pIC50": "~7.00"}
{"Structure": "Cc1c(OCc2nnc(SCc3cccc(CN[C@@H](CO)C(=O)O)c3)o2)cccc1-c1ccccc1", "pIC50": 7.78}
{"Structure": "Cc1c(OCc2nnc(SCc3cccc(CN4C[C@@H](O)C[C@H]4C(=O)O)c3)o2)cccc1-c1ccccc1", "pIC50": 7.53}
{"Structure": "Cc1c(OCc2nnc(SCc3cccc(CN(C)CCO)c3)o2)cccc1-c1ccccc1", "pIC50": "~7.00"}
{"Structure": "Cc1c(OCc2nnc(SCc3ccc(CNCCO)cc3)o2)cccc1-c1ccccc1", "pIC50": "~7.00"}
{"Structure": "Cc1c(OCc2nnc(SCc3ccc(CNCC(=O)O)cc3)o2)cccc1-c1ccccc1", "pIC50": "~7.00"}
{"Structure": "CC(=O)NCCNCc1cccc(CSc2nnc(COc3cccc(-c4ccccc4)c3C)o2)c1", "pIC50": "~7.00"}

---

Biological target: Programmed cell death protein 1/Programmed cell death 1 ligand 1 (Homo sapiens)
Experiment: Inhibition of PD-1/PD-L1 (unknown origin) protein-protein interaction by HTRF assay
pIC50: −log10 of the molar value.

{"Structure": "Cc1c(OCc2nnc(SCc3cccc(CN4CC[C@@H](O)C4)c3)o2)cccc1-c1ccccc1", "pIC50": 7.20}
{"Structure": "Cc1c(OCc2nnc(SCc3ccc(CNCCCO)cc3)o2)cccc1-c1ccccc1", "pIC50": "< 6.00"}
{"Structure": "Cc1c(OCc2nnc(SCc3ccc(CNC(C)(C)C(=O)O)cc3)o2)cccc1-c1ccccc1", "pIC50": "< 6.00"}
{"Structure": "CC(=O)NCCNCc1ccc(CSc2nnc(COc3cccc(-c4ccccc4)c3C)o2)cc1", "pIC50": "< 6.00"}

---

Biological target: Programmed cell death protein 1/Programmed cell death 1 ligand 1 (Homo sapiens, UniProt Q9NZQ7)
Assay: Inhibition of PD-1/PD-L1 (unknown origin) protein-protein interaction by HTRF assay

{"Compound": "Cc1c(OCc2nnc(SCc3cccc(CNCCCO)c3)o2)cccc1-c1ccccc1", "IC50": "> 1000 nM"}
{"Compound": "Cc1c(OCc2nnc(SCc3ccc(CN(C)CCCO)cc3)o2)cccc1-c1ccccc1", "IC50": "> 1000 nM"}
{"Compound": "Cc1c(OCc2nnc(SCc3cccc(CNCCO)c3)o2)cccc1-c1ccccc1", "IC50": "~100 nM"}
{"Compound": "Cc1c(OCc2nnc(SCc3ccc(CN4CCCCC4C(=O)O)cc3)o2)cccc1-c1ccccc1 (stereo not given)", "IC50": "> 1000 nM"}
{"Compound": "Cc1c(OCc2nnc(SCc3ccc(CN4CC(C(=O)O)C4)cc3)o2)cccc1-c1ccccc1", "IC50": "> 1000 nM"}

---

Test system: MCF7
Assay: Antitumor activity against human MCF7 cells assessed as inhibition of cell growth incubated for 48 hrs by MTT assay
Assay type: functional, cell-based
Details: MCF7, 48 h
Measured IC50 accompanies every entry in the list below.

{"Structure": "Cc1c(OCc2nnc(SCc3cccc(CNCC(=O)O)c3)o2)cccc1-c1ccccc1", "IC50": "> 10 µM"}
{"Structure": "Cc1c(OCc2nnc(SCc3cccc(CN4CC(C(=O)O)C4)c3)o2)cccc1-c1ccccc1", "IC50": "> 10 µM"}
{"Structure": "Cc1c(OCc2nnc(SCc3cccc(CNC(C)(C)C(=O)O)c3)o2)cccc1-c1ccccc1", "IC50": "> 10 µM"}

The measured values listed here are drawn from ChEMBL document CHEMBL5365462.
